# Tested on: K4 kissing-loop RNA reporter;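 also: bound reporter read as fluorescence of individual clusters on recovered sequencing chips by microscopy, with normalized cluster intensities fitted with a binding model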
# ASSAY_NOTES: apparent KD of K4 kissing-loop reporter; higher = weaker reporter binding
# EXPERIMENTAL_SETUP: Eterna round: R107; input ligand: FMN 200 uM
ASSAY_METRIC: apparent KD of K4 kissing-loop reporter (nM)
Give the quantity in nM, number only.

- POLYMER_SEQUENCE: "UCCUAGGUCUUCAGGCGAAAGCCCUGCGAAGGAGCGUGCGAAAGCACAGGUAGGUCGCGCAGUGAUGUUGCACCUAGGUAAUAAA [#SwitchBubble 21 #K4Late]"
  UNIT_SPEC: "nM"
  ASSAY_RESULT: 843
- POLYMER_SEQUENCE: "GGAUAGGACAGAGGAUAUCCUGAGUCUACAAAGUAGGCUCAUAAAGGAUGAAUCCUAGUGAUGUUAGGAGAAGGCUGUCCUAUCG [FmnBX 16 - #SwitchBubble #StaticStem #Palindromic]"
  UNIT_SPEC: "nM"
  ASSAY_RESULT: 110
- POLYMER_SEQUENCE: "UUUUUCGCGUUUGAUACCAGCAGAGUUGUUCGUGUCUGGAACAUGAGUGAUGUUCAUGUCUGCCCUUGGCAGCAAACGGGAGAAG [KL-XTheo-B13]"
  UNIT_SPEC: "nM"
  ASSAY_RESULT: 127
- POLYMER_SEQUENCE: "UGACGUAAAACCGUCGAAUCGCUGUGAGAAGGAGCGGUAAAAUUGCCAGGUAGGUCGCUCACAGCCUCACAGUGAUGUUGUGGGA [Sovetequ]"
  UNIT_SPEC: "nM"
  ASSAY_RESULT: 468
- POLYMER_SEQUENCE: "GCCGUAGAUGGAAGGAGCGUGCGUGAAGUGAUGUUUCACGAAGAGUUUUCCACCUUAUAUGCACAGGUAGGUCGCCAUCUACGGC"
  UNIT_SPEC: "nM"
  ASSAY_RESULT: 114
- POLYMER_SEQUENCE: "UGACUGGACUGAAGGAGCGCUGAAGGAGCGUAAGUAGUGAUGUUGCUUACAGGUAGGUCGCAGCAGGUAGGUCGCAGUCUAGUCU"
  UNIT_SPEC: "nM"
  ASSAY_RESULT: 45.3
- POLYMER_SEQUENCE: "GCCGCCGCGGCAGGAUAUAGGUUCAUGGAGUGAUGUUCCAUAACCCGAGUGAUGUUCGUUAUCCGCCUAGAAGGGCCGCGGCGGC"
  UNIT_SPEC: "nM"
  ASSAY_RESULT: 201
- POLYMER_SEQUENCE: "AAACAUCACUGGGAGUGAUGUUCUCAGUGACGAGGACCGGUACGGCCGCCACUCGCGAGAGAUAUAGGUAAGUAAUGACAUCAUU [Excl Tryptophan A V5]"
  UNIT_SPEC: "nM"
  ASSAY_RESULT: 340

**Query** Identify measured apparent KD of K4 kissing-loop reporter corresponding to CUAUGGGUGGACGAUACCAGCUAGUGAUGUUAGCGGGUCGAGCACGCGCAUCGCCGUGGUAGCCCUUGGCAGCGUACAGAUGUUU [theeternabot_exclusion_KL_Theo_B_5]
**Result** 186

**Query** Identify measured apparent KD of K4 kissing-loop reporter corresponding to UGCGGUAGUGAUGUUACCUCAUUAUACUAGCGAGGACCGGUACGGCCGCCACUCGACUUCCUCCACGCCUAGGCCUCUACGUUCA [theeternabot_sameState_KL_Trp_A_36]
**Result** 136

**Query** Identify measured apparent KD of K4 kissing-loop reporter corresponding to UAUUGAUUGUCAGGAUAUCGUAAACGAGUGAUGUUCGUAUAUUGACGAUAGUCAAUUCUAUCUGAACGAGAAGGGACAUUAUUUA [JR_SSFMNB_Sub009]
**Result** 318

**Query** Identify measured apparent KD of K4 kissing-loop reporter corresponding to UUUCGUCUCUGAGGAUAUCAGAGGAGAGUGAUGUUCUCCCAUAGCCCAGUGAUGUUGGAUGCUAUCUGAGAAGGCAGUGGGCGAA [Same State FMN B GF 13]
**Result** 143

**Query** Identify measured apparent KD of K4 kissing-loop reporter corresponding to UGAUAGGACAGAAGGAGCGGUAGUGAUGUUGCCAAAAGGUUAAGGUGUCAAAAGACACCCUACCAGGUAGGUCGCUGUCCUAUCU
**Result** 188

###

# Tested on: MS2 coat protein
# ASSAY_NOTES: apparent KD of MS2 coat protein; designed switch direction (-1 OFF switch, 1 ON switch): 1; higher = weaker reporter binding
# EXPERIMENTAL_SETUP: input ligand: microRNA oligo, concentration not stated
Tag: Met if measured apparent KD of MS2 coat protein is not below 30 nM, Not met if it is.

**Query** // inclusive: apparent KD of MS2 coat protein at least 30 nM? input: GGAGACAGAGCAGGAUAUGCUCCGAGUAACGAAGCAGAAGGGUUCGUAAAUCGUCGACAUGAGGAUCACCCAUGUGACCUAGUA [Eternabot solution 18] (Eterna round: R96, puzzle: Same State NG 1)
**Result** Not met

**Query** // inclusive: apparent KD of MS2 coat protein at least 30 nM? input: AUUCGUUUGAUAGGAUAUCACUUUACAUGAGGAUCACCCAUGUUCACCACGCUGGUCCCUUAUACUGAGAAGGAUCUUGAUGAC [JR_SSNG2_Sub008] (Eterna round: R96, puzzle: Same State NG 2)
**Result** Met

**Query** // inclusive: apparent KD of MS2 coat protein at least 30 nM? input: AGAUGUUAAUUAGGAUAUGGACACAUGAGGAUCACCCAUGUAACGAAGAUACGAUGUGGUCAAGUCUAGAAGGGAUCGCUAACA [SameState NG2 #74] (Eterna round: R96, puzzle: Same State NG 2)
**Result** Not met

**Query** // inclusive: apparent KD of MS2 coat protein at least 30 nM? input: GUGGUCUGACAUGAGGAUCACCCAUGUGGAAUAAAUACGGGUUAGGAUAUCUUGAGGAUCACCCAAGAGAAGGGAUGGAUUGUU (Eterna round: R96, puzzle: Same State NG 3)
**Result** Met

**Query** // inclusive: apparent KD of MS2 coat protein at least 30 nM? input: GUGGCGGGUUGAGGAUAUUGGUUGCCGCUGUUUUACAUGAGGAUCACCCAUGUGGGUUGCGGUUUCGAGAAGGGCGGUUGCUGG [salish99_SSNG2_r04_056] (Eterna round: R96, puzzle: Same State NG 2)
**Result** Not met

###

# apparent KD of MS2 coat protein listing for each entry below
# Test system: MS2 coat protein
# ASSAY_NOTES: apparent KD of MS2 coat protein; designed switch direction (-1 OFF switch, 1 ON switch): -1; higher = weaker reporter binding
# EXPERIMENTAL_SETUP: input ligand: FMN 200 uM
Give the quantity in nM, number only.

As a guide, the following entries are already answered.
- POLYMER_SEQUENCE: "ACGAUGAUCGAAAAGUGUAAACUAACAUGAGGAUCACCCAUGUAGGAUAUGGCUACGAAAAGUAGUCAGAAGGGCAUGUCAUCA [3 Av mod - 2] (Eterna round: R96, puzzle: Exclusion NG 3)"
  UNIT_SPEC: "nM"
  apparent KD of MS2 coat protein: 24
- POLYMER_SEQUENCE: "UUAUUAUAUGAAGGAUAUACUUAACAUGAGGAUCACCCAUGUGGUGUUGUGAGUGAGUGAGUUUAGUAGAAGGUCAAUUAUUUU [JMF's solution 28] (Eterna round: R96, puzzle: Exclusion NG 2)"
  UNIT_SPEC: "nM"
  apparent KD of MS2 coat protein: 833
- POLYMER_SEQUENCE: "UGUGUCUCAGGAGGAUAUCUCUCGGUUGCCGUUAGAGAAGGCUUGAAACAUGAGGAUCACCCAUGUAAAUGGCCCGUCCUCCAA [Lalecetege] (Eterna round: R96, puzzle: Exclusion NG 1)"
  UNIT_SPEC: "nM"
  apparent KD of MS2 coat protein: 12.2
- POLYMER_SEQUENCE: "CUUUUGUGAGGAUAUCUGGCUUCGAUCGUGAGAUCGAGGCUAGAGAAGGCACAUGAGGAUCACCCAUGUUCCUU [jl-ex4-4.05 salish99 mod] (Eterna round: R97, puzzle: Exclusion 4)"
  UNIT_SPEC: "nM"
  apparent KD of MS2 coat protein: 66.1

**Query** Identify measured apparent KD of MS2 coat protein corresponding to UAACAAGCUUAAAGAUCCCACAUGAGGAUCACCCAUGUGCUCGUCUUAUAACGUACUGUGACGAAAGUCACGGUACG [JL TOV1 3.13] (Eterna round: R97, puzzle: Sensor, turn-off variant 1)
**Result** 29.2

**Query** Identify measured apparent KD of MS2 coat protein corresponding to GCCUACAGAGGAUAUACAAAUGUAUGAAACCUGUUUAGACGACAUGAGGAUCACCCAUGUAGAAGGCUGUGGGC [Eternabot (L1) Solution 85] (Eterna round: R97, puzzle: Exclusion 2)
**Result** 285

**Query** Identify measured apparent KD of MS2 coat protein corresponding to CGGUGUAGAGGAUAUACGUGGAUGUAAAUUCAUGAUAUUUUACAUGAGGAUCACCCAUGUAGAAGGCUAUAGCG [JR_Ex2_Sub078] (Eterna round: R97, puzzle: Exclusion 2)
**Result** 74.2

**Query** Identify measured apparent KD of MS2 coat protein corresponding to CCGUAACAUGAGGAUCACCCAUGUCAGGAUAUUCCAAAAUCGUCGAAAGACGAUAACAGAAGAAGGGACAGUGG [Fiskxlusion 5 - Jieux - Exclusion 1] (Eterna round: R97, puzzle: Exclusion 1)
**Result** 104

**Query** Identify measured apparent KD of MS2 coat protein corresponding to CCGGUUUAGGAGGAUAUAGGAGUCGAUAGACACCUAGAAGGCCUAACAUGAGGAUCACCCAUGUGACCUUCCGG [Mod of Eli 30 - Jieux - Exclusion 6] (Eterna round: R97, puzzle: Exclusion 6)
**Result** 234

**Query** Identify measured apparent KD of MS2 coat protein corresponding to AUUGUAUGAGGAUAUACACCAGUGGGAGUGUCUUGCGUGAUACAUGAGGAUCACCCAUGUAGAAGGCGUACUAC [Eternabot (L2) Solution 90] (Eterna round: R97, puzzle: Exclusion 2)
**Result** 36.9

**Query** Identify measured apparent KD of MS2 coat protein corresponding to ACAUGAGGAUCACCCAUGUGAAAAGAAUGGCUGACACAGAGUUAGGAUAUGCGUGCAUAUCUAACGCAGAAGGGACAUGACUGG [Deportation 82 - Jieux - Exclusion NG 3] (Eterna round: R96, puzzle: Exclusion NG 3)
**Result** 33.7

**Query** Identify measured apparent KD of MS2 coat protein corresponding to ACUUACUGAGGAUAUACAUAGAUUUACAUGAGGAUCACCCAUGUUCCUCUAUGUAUAAAUGUAGAAGGCAGAAGAU [Mat - Exclusion 5 - JL Mod - D55] (Eterna round: R97, puzzle: Exclusion 5)
**Result** 64.2

**Query** Identify measured apparent KD of MS2 coat protein corresponding to GUCAGCUCGUGAGGAUAUACAUGCGUGCUUCGGCACGUAUGAUAGAUCACAUGAGGAUCACCCAUGUAGAAGGUACGAGCUGAU [ENG2/4-C2] (Eterna round: R96, puzzle: Exclusion NG 2)
**Result** 14.9

**Query** Identify measured apparent KD of MS2 coat protein corresponding to GUUGACGGAGGAUAUACAGCCGAGAUCCACCGUGUGGAGGAACAUGAGGAUCACCCAUGUAGAAGGCUGCAGUA [Eternabot (L2) Solution 92] (Eterna round: R97, puzzle: Exclusion 2)
**Result** 16

**Query** Identify measured apparent KD of MS2 coat protein corresponding to GGAUCGAGUGUGAGGAUAUGCAGGUCCUUGGAUCUGCAGAAGGCACAUGAGGAUCACCCAUGUGAUCAAGAUCC [Mat - Exclusion 4 - Eli Mod - D47] (Eterna round: R97, puzzle: Brourd's mod of Exclusion 4)
**Result** 36.6
